Target: T1, human GIP receptor (human, UniProt P48546 22-466)
T1 sequence (looked up): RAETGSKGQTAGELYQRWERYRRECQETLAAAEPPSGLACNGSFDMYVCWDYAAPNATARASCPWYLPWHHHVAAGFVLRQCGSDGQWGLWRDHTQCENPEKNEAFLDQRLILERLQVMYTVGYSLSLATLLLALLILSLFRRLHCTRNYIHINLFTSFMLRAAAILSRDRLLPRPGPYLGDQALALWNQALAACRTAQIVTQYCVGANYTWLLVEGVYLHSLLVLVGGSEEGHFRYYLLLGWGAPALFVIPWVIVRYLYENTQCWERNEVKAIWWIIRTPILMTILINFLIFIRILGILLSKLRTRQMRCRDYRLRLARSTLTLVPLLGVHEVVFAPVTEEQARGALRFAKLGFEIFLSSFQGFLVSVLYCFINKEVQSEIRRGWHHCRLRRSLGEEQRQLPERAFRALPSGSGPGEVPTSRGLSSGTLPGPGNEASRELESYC
Experiment: cell-based or functional assay
Give measured logEC50 (cAMP) for each item. Keep answers brief.
Answers are plain numbers.

In the examples that follow, each entry is paired with its recorded logEC50 (cAMP).
binder	logEC50 (cAMP)
HAEGTFISDYSTILDNLAARDFINWLIQTKGKK [GIP-GLP-2 co-agonist 10]	-8.27
HAEGSFISDYSTILDNLAARDFINWLIQTKITD [GIP-GLP-2 co-agonist 4]	-7.42
HVDGTFISDYSTILDNLAARDFINWLIQTKITD [GIP-GLP-2 co-agonist 12]	-8.96
HAEGTFISDYSTILDNLAARDFVNWLLAQKITD [GIP-GLP-2 co-agonist 9]	-8.5
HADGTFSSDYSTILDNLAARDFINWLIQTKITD [GIP-GLP-2 co-agonist 13]	-7.92
HADGTFISDYSTILDNLAARDFINWLIQTKGTD [GIP-GLP-2 co-agonist 16]	-9.22

Batch request: logEC50 (cAMP) for each of the following binders.
1. HAEGTFISDYSTILDNLAARDFINWLIQTKITD [GIP-GLP-2 co-agonist 1]
2. HADGSFSDEMNTILDNLAARDFINWLIQTKITD (ligand) [human native GLP-2]
3. HADGTFISDYSTILDNLAARDFINWLIQTKIKD [GIP-GLP-2 co-agonist 17]
4. HADGTFISEYSTILDNLAARDFINWLIQTKITD [GIP-GLP-2 co-agonist 15]

1: -7.53; 2: -7.25; 3: -9.39; 4: -8.5

Batch request: logEC50 (cAMP) for each of the following binders.
1. HADGTFISDYSTILDNLAARDFINWLIQTKITK [GIP-GLP-2 co-agonist 18]
2. HAEGTFSDEYSTILDNLAARDFINWLIQTKITD [GIP-GLP-2 co-agonist 5]
3. HADGTFIDDYSTILDNLAARDFINWLIQTKITD [GIP-GLP-2 co-agonist 14]

-9.18
-6.34
-8.63
